Origin of measurements: patent US20240018161A1

Molecular target: CFTR-mediated chloride transport in human intestinal epithelial enteroid cells (Homo sapiens, UniProt P13569)
Sequence (P13569 with tags, fused parts or gaps DEL508-508): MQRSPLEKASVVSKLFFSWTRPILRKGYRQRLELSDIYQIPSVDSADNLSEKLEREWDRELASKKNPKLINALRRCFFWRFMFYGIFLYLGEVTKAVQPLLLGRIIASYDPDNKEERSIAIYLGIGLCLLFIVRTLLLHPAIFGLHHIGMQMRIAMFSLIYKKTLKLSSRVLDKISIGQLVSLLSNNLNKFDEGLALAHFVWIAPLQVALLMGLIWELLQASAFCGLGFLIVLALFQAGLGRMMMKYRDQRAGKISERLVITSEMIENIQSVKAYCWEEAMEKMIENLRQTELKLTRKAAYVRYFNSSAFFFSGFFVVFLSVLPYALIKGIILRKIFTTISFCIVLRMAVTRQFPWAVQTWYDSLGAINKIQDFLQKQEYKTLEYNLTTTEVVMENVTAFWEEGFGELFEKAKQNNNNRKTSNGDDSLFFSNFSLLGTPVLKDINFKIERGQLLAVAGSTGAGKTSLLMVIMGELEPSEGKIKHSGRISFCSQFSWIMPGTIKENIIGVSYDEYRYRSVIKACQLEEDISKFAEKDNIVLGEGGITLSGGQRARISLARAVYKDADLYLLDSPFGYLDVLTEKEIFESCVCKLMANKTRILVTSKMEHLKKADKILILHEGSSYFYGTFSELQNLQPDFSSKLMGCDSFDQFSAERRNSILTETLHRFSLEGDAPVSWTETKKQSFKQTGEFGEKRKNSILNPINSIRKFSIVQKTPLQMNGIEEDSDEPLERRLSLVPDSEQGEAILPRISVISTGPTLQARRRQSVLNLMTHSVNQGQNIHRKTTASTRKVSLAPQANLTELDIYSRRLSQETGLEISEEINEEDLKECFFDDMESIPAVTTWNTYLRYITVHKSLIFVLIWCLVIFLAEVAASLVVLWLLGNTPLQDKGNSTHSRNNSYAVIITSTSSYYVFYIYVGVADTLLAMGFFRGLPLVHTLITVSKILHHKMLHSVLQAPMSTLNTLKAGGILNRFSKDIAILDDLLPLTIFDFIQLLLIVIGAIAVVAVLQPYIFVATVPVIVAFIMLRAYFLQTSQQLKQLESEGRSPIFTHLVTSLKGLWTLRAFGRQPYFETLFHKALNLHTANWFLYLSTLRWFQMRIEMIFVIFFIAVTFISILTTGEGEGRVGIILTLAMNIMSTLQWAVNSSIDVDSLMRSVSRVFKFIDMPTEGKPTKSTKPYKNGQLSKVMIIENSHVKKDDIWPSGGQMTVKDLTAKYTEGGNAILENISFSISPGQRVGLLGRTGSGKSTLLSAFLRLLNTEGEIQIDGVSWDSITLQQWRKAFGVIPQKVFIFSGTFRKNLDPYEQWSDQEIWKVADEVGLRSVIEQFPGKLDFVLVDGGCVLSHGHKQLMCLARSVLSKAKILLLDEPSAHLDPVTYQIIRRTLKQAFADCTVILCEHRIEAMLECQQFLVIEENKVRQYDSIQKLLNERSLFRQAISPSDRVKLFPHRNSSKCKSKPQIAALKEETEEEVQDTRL
Test: Membrane potential dye, Enteroid Assay A
Format: cell-based
Details: Enteroid Assay A
readout: Ent. A Max Activity (%)

Data request: What value of Ent. A Max Activity (%) has been reported for the following compound? Cc1cccc(C)c1-c1cc2nc(n1)NS(=O)(=O)c1cccc(c1)C(=O)N1CCN(Cc3ccccc3)CC(O2)C1CC(C)C (single isomer, unassigned) [Compound 94]
Data returned: +++ (+++ is >600%)

Data request: Given Cc1cccc(C)c1-c1cc2nc(n1)NS(=O)(=O)c1cccc(c1)C(=O)N1CCN([C@@H](C)C(C)(C)C)C[C@H](C1)O2 (single isomer, unassigned) [Compound 73] , state its recorded Ent. A Max Activity (%).
Data returned: +++ (+++ is >600%)

###

Each record here notes measured pEC50.
Target: CFTR-mediated chloride transport in human intestinal epithelial enteroid cells (Homo sapiens)
Assay: Membrane potential dye, Enteroid Assay A
Format: cell-based
Settings: enteroid cells incubated with test compound 18-24 hours; acute 10 μM forskolin and 300 nM N-[2,4-bis(1,1-dimethylethyl)-5-hydroxyphenyl]-1,4-dihydro-4-oxoquinoline-3-carboxamide; read-out: Ent. A EC50
pEC50: −log10 of the molar value.

Data request: Suppose we examine the compound Cc1cccc(C)c1-c1cc2nc(n1)NS(=O)(=O)c1cccc(c1)C(=O)N1CCN(Cc3cccc(O)c3)C[C@@H]1CO2 ; what pEC50 value has been reported?
Data returned: 4.52 to 5.52

Data request: Look up pEC50: Cc1cccc(C)c1-c1cc2nc(n1)NS(=O)(=O)c1cccc(c1)C(=O)N1CC(CC(c3ccccc3)C1)O2 (single isomer, unassigned) [Compound 223]
Data returned: > 6.00

Data request: What measured pEC50 goes with Cc1cccc(C)c1-c1cc2nc(n1)NS(=O)(=O)c1cccc(c1)C(=O)N1CCN(Cc3ccc(C#N)cc3)C[C@@H]1CO2 ?
Data returned: 5.52 to 6.00

Others:
Data request: Can you share its pEC50? I mean this compound: Cc1cccc(C)c1-c1cc2nc(n1)NS(=O)(=O)c1cccc(c1)C(=O)N1CCN(C(=O)OC(C)(C)C)C[C@@H]1CO2
Data returned: > 6.00

Data request: Which pEC50 reading was recorded for the compound Cc1cccc(C)c1-c1cc2nc(n1)NS(=O)(=O)c1cccc(c1)C(=O)N1CCN(C(=O)NC34CC5CC(CC(C5)C3)C4)C[C@@H]1CO2 ?
Data returned: 5.52 to 6.00

Data request: Param item = Cc1cccc(C)c1-c1cc2nc(n1)NS(=O)(=O)c1cccc(c1)C(=O)N1CC(CC3(CCCC3)C1)O2 (stereo not drawn) ; retrieve measured pEC50.
Data returned: > 6.00

###

Target: CFTR-mediated chloride transport in human intestinal epithelial enteroid cells (Homo sapiens)
Assay: Membrane potential dye, Enteroid Assay A
Format: cell-based
Conditions: percentage of chloride transport of triple combination control (3 μM N-[(6-amino-2-pyridyl)sulfonyl]-6-(3-fluoro-5-isobutoxy-phenyl)-2-[(4S)-2,2,4-trimethylpyrrolidin-1-yl]pyridine-3-carboxamide based)
Method: Base medium (ADF+++) consisted of Advanced DMEM/Ham's F12, 2 mM Glutamax, 10 mM HEPES, […] penicillin/streptomycin. Bath 1 Buffer consisted of 1 mM MgCl2, 160 mM NaCl, 4.5 mM KCl, 10 mM HEPES, 10 mM Glucose, 2 mM CaCl2. […] Briefly, cells were washed 5 times in Bath 1 Buffer. […] Chloride transport was initiated by addition of Chloride Free Dye Stimulation Solution and the fluorescence signal was read for 15 min. […]
readout: Ent. A Max Activity (%)

Example compounds with recorded Ent. A Max Activity (%):
Data request: Form field: reported Ent. A Max Activity (%) of Cc1cccc(C)c1-c1cc2nc(n1)NS(=O)(=O)c1cccc(c1)C(=O)N1CCCCC(C1)O2 (stereo not shown) [Compound 369]
Data returned: + (+ is <300%)

Data request: So what does the record say about Ent. A Max Activity (%) for Cc1cccc(C)c1-c1cc2nc(n1)NS(=O)(=O)c1cccc(c1)C(=O)N1CC(O2)C(N2CCOCC2)C1 (stereo not shown) [Compound 323] ?
Data returned: ++ (++ is 30-60%)

Data request: Query (compound): Cc1cccc(C)c1-c1cc2nc(n1)NS(=O)(=O)c1cncc(c1)C(=O)N1Cc3ccccc3[C@@H](C1)O2 [Compound 360] ; field requested: Ent. A Max Activity (%)
Data returned: + (+ is <300%)

Data request: Which measured Ent. A Max Activity (%) value corresponds to Cc1cccc(C)c1-c1cc2nc(n1)NS(=O)(=O)c1cccc(c1)C(=O)N1CCN(C(=O)N(C(C)C)C(C)C)C[C@@H]1CO2 [Compound 167] ?
Data returned: +++ (+++ is >60%)

Data request: Requested read-out: Ent. A Max Activity (%). Entry: Cc1cccc(C)c1-c1cc2nc(n1)NS(=O)(=O)c1cccc(c1)C(=O)N1Cc3cnccc3C(C1)O2 (stereo not shown) [Compound 194]
Data returned: ++ (++ is 30-60%)

Data request: Which Ent. A Max Activity (%) reading was recorded for the compound Cc1cccc(C)c1-c1cc2nc(n1)NS(=O)(=O)c1cccc(c1)C(=O)N1CCN(Cc3ccccc3)C[C@H](C1)O2 [Compound 67] ?
Data returned: +++ (+++ is >60%)

// moving on: another record for Ent. A Max Activity (%)
Data request: // Ent. A Max Activity (%) lookup, key: Cc1cccc(C)c1-c1cc2nc(n1)NS(=O)(=O)c1cccc(c1)C(=O)N1CCN(CCCC(C)(C)C)CC(C1)O2 (stereo not shown) [Compound 65]
Data returned: ++ (++ is 30-60%)

###

Molecular target: CFTR-mediated chloride transport in human intestinal epithelial enteroid cells (Homo sapiens)
Experiment: Membrane potential dye, Enteroid Assay B
Format: cell-based
Conditions: Enteroid Assay B; read-out: Ent. B EC50
readout: EC50

Data request: Endpoint output: EC50 of Cc1cccc(C)c1-c1cc2nc(n1)NS(=O)(=O)c1cccc(c1)C(=O)N1C[C@@H](CCC[C@@H]1CC(C)C)O2 (single isomer, unassigned) . Value?
Data returned: < 1000 nM

---
Data request: Quick one: EC50 of Cc1cccc(C)c1-c1cc2nc(n1)NS(=O)(=O)c1cccc(c1)C(=O)N1Cc3ccccc3C(CO2)C1 (stereo not drawn) ?
Data returned: < 1000 nM

Data request: Please look up its EC50: Cc1cccc(C)c1-c1cc2nc(n1)NS(=N)(=O)c1cccc(c1)C(=O)N1CCN(CCC(C)(C)C)C[C@H](C1)O2 (single isomer, unassigned)
Data returned: < 1000 nM

Data request: Sample Cc1cccc(C)c1-c1cc2nc(n1)NS(=N)(=O)c1cccc(c1)C(=O)N1CCN(C(=O)OC(C)(C)C)CC(C1)O2 (stereo not drawn) — what was its EC50?
Data returned: 1000 to 3000 nM

Data request: Need EC50 of Cc1cccc(C)c1-c1cc2nc(n1)NS(=O)(=O)c1cccc(c1)C(=O)N1CCN(C)[C@H](CC(C)C)[C@H](C1)O2 , thanks.
Data returned: < 1000 nM

Data request: GET /values?readout=EC50&item= Cc1cccc(C)c1-c1cc2nc(n1)NS(=O)(=O)c1cccc(c1)C(=O)N1C[C@H](O2)c2ccccc2[C@@H]1CC(C)C (single isomer, unassigned) [Compound 190]
Data returned: < 1000 nM

###

Target: CFTR-mediated chloride transport in human intestinal epithelial enteroid cells (Homo sapiens, UniProt P13569)
Test: Membrane potential dye, Enteroid Assay A
Format: cell-based
Conditions: Enteroid Assay A
readout: Ent. A Max Activity (%)

Data request: Sample Cc1cccc(C)c1-c1cc2nc(n1)NS(=O)(=O)c1cccc(c1)C(=O)N1CCN(C(=O)OC(C)(C)C)CC1C(Cc1ccccc1)O2 (stereo not drawn) — what was its Ent. A Max Activity (%)?
Data returned: ++ (++ is 30-60%)

Data request: I would be grateful if you could share the reported Ent. A Max Activity (%) for Cc1cccc(C)c1-c1cc2nc(n1)NS(=O)(=O)c1cccc(c1)C(=O)N1C[C@@H](CNC[C@H]1C(C)C)O2 .
Data returned: ++ (++ is 30-60%)

Data request: Returns the measured Ent. A Max Activity (%) for the input molecule. Input: Cc1cccc(C)c1-c1cc2nc(n1)NS(=O)(=O)c1cccc(c1)C(=O)N1CCCN(CCC3(C(F)(F)F)CC3)CC(C1)O2 (stereo not drawn)
Data returned: ++ (++ is 30-60%)

Data request: Could you share which Ent. A Max Activity (%) value was measured for CCCN1CCN2C[C@@H](C1)Oc1cc(-c3c(C)cccc3C)nc(n1)NS(=O)(=O)c1cccc(c1)C2=O ?
Data returned: +++ (+++ is >600%)

More entries:
Data request: Fill blank: measured Ent. A Max Activity (%) of the molecule Cc1cccc(C)c1-c1cc2nc(n1)NS(=O)(=O)c1cccc(c1)C(=O)N1C[C@H](CC(C)C)NC[C@H](C1)O2 is ____.
Data returned: +++ (+++ is >600%)
